Experimental details: Cytotoxicity in HCV replicon assay (ΔCt rRNA)
Format: cell-based
Test parameters: human, HCV Replicon (Huh7)
Method: Huh 7 Clone B cells containing HCV Replicon RNA were seeded in a 96-well plate at 5000 cells/well, and the compounds tested at 10 μM in triplicate immediately after seeding. […] The antiviral effectiveness of the compounds was calculated by subtracting the threshold RT-PCR cycle of the test compound from the threshold RT-PCR cycle of the no-drug control (ΔCt HCV). […] The cytotoxicity of the compounds was also calculated using the ΔCt rRNA values. […]
Please go through the items and note down their CC50 at 5 day.

CCOC(=O)CCc1ccccc1O[P@@](=O)(N[C@@H](C)C(=O)OCC)OC[C@H]1O[C@@H](n2cnc3c(N)nc(N)nc32)C(C)(O)C1O (stereo partly shown)	> 10 µM
CCOC(=O)CCc1ccccc1O[P@](=O)(N[C@@H](C)C(=O)OCC)OC[C@H]1O[C@@H](n2cnc3c(N)nc(N)nc32)C(C)(O)C1O (stereo partly shown)	> 3 µM
CCOC(=O)CCc1ccccc1OP(=O)(N[C@@H](C)C(=O)OCC)OC[C@H]1O[C@@H](n2cnc3c(N)nc(N)nc32)C(C)(F)C1O (stereo partly shown)	> 10 µM

The value of CC50 at 5 day measured for the molecule CCOC(=O)[C@H](C)NP(=O)(OC[C@H]1O[C@@H](n2cnc3c(N)nc(N)nc32)C(C)(O)C1O)Oc1ccccc1 (stereo partly shown) [drawing 56] turned out to be > 10 µM
